System: MDA-MB-435 melanoma
Test: NCI-60 one-dose screen, 48 h
Conditions: 10 µM unless noted
The panel holds about 83,000 compounds, 20% with a hit somewhere; the sample as a whole holds those more often. Active and inactive are the calls of the source. Rule for the calls: active = growth percent below 10; inactive = the rest.
Response enum: active, inactive

[[record]]
compound = "CCOC(=O)C(Cc1ccc(OC)cc1)C(=O)OCC"
discrete_label = "inactive"

[[record]]
compound = "N#CC1CCc2c(c(-c3ccc4nc(N)sc4c3)nc3ccc4[nH]ncc4c23)C1 (stereo not given)"
discrete_label = "active"

[[record]]
compound = "CCNc1ccc(-c2nc3ccccc3n3cccc23)cc1"
discrete_label = "inactive"

[[record]]
compound = "O=C(N=Nc1c(O)[nH]c2ccccc12)Nc1ccc(F)cc1"
discrete_label = "inactive"


Moving on to the next compound.
Query block: What was the test verdict on "COC(=O)/C=C1/SC(=Nc2ccc([N+](=O)[O-])cc2)N(CCc2c[nH]c3ccc(O)cc23)C1=O" ?
Result block: inactive

Hello, the source for this data is PubChem BioAssay (NCI), in case you need it.
